Biological target: human CTPS1 (Homo sapiens, UniProt P17812)
Construct: purchased Proteros biostructures GmbH
Sequence (P17812 whole entry): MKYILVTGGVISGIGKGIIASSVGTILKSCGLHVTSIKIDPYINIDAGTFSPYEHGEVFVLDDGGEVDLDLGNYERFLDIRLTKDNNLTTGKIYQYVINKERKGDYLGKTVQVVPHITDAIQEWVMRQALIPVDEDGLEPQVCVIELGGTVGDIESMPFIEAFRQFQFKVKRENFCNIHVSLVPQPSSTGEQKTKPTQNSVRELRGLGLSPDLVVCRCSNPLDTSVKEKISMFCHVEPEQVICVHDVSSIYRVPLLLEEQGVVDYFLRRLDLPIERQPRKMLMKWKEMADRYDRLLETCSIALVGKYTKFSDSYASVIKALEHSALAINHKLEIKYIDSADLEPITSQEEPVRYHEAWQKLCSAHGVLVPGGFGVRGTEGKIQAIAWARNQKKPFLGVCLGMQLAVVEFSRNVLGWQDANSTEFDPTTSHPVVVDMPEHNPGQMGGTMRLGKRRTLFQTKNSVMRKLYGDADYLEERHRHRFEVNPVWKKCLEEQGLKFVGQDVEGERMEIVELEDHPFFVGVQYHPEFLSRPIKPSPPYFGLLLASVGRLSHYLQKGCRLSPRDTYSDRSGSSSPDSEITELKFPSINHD
Experiment: Human CTPS1 enzyme inhibition (ADP-Glo Max assay)
Assay type: biochemical
Settings: Table 23, read-out: CTPS1 (Human CTPS1 Enzyme Inhibition data grouped by potency range)
property: IC50

Could you tell me which IC50 is on file for CC(C)Oc1cncc(-c2ccc(NC(=O)C(C)(C)c3ccnc(NS(=O)(=O)C4CC4)n3)nc2)n1 ?
≤ 100 nM

###

Test system: human CTPS1 versus CTPS2
Assay: Human CTPS1 versus CTPS2 selectivity assessment by RapidFire/MS analysis
Type: biochemical
Settings: Table 26; RapidFire/MS IC50 ratio
property: Selectivity (fold selectivity between CTPS1 and CTPS2)

Examples with their reported Selectivity (fold selectivity between CTPS1 and CTPS2) follow.
molecule="CCOc1cncc(-c2ccc(C(=O)NC(CC)c3ccnc(NS(=O)(=O)C4CC4)n3)c(F)c2)n1 (stereo not drawn) [Example P216]" observed_value="+++ (>60 fold (+++))"
molecule="CCOc1cncc(-c2ccc(NC(=O)C3(c4cncc(NS(=O)(=O)C5CC5)n4)CCOCC3)nc2)n1 [Example P197]" observed_value="+++ (>60 fold (+++))"
molecule="CCOc1cncc(-c2ccc(NC(=O)C(C)(CCOC)c3cncc(NS(=O)(=O)C4CC4)n3)nc2)n1 (stereo not drawn) [Example P198]" observed_value="+++ (>60 fold (+++))"
molecule="CCC(C(=O)Nc1ncc(-c2cncc(OC)n2)cc1F)c1ccnc(NS(=O)(=O)C2CC2)n1 (stereo not drawn) [Example P158]" observed_value="+ (2-30 fold (+))"
molecule="CCOc1cncc(-c2ccc(NC(=O)C(F)(CC)c3ccnc(NS(C)(=O)=O)n3)nc2)n1 (stereo not drawn) [Example P151]" observed_value="+++ (>60 fold (+++))"

State the recorded Selectivity (fold selectivity between CTPS1 and CTPS2) for this entry: CC(C)Oc1cncc(-c2ccc(NC(=O)C(C)(C)c3ccnc(NS(=O)(=O)C4CC4)n3)c(F)c2)n1 [Example P39]
+ (2-30 fold (+))

Query CCOc1cncc(-c2ccc(NC(=O)C(CC)c3cccc(NS(=O)(=O)C4CC4)n3)cc2)n1 (stereo not drawn) [Example P191] next
++ (>30-60 fold (++))

Item: CC(C)Oc1cncc(-c2ccc(NC(=O)Cc3ccnc(NS(=O)(=O)C4CC4)n3)cc2)n1 [Example P21]
++ (>30-60 fold (++))

Entry CCOc1cncc(-c2ccc(NC(=O)C(CC)c3cncc(NS(=O)(=O)C4CC4)n3)cc2)n1 (stereo not drawn) [Example P202] please
+++ (>60 fold (+++))

Next molecule up: CCOc1cncc(-c2ccc(NC(=O)C(C)(C)c3ccnc(NS(=O)(=O)C4CC4)n3)c(C#N)c2)n1 [Example P34]
+ (2-30 fold (+))

Can you check CCOc1cncc(-c2ccc(NC(=O)C(C)(C)c3cncc(NS(=O)(=O)C4CC4)n3)cc2)n1 [Example P196] next?
+++ (>60 fold (+++))

Queued: CCOc1cncc(-c2ccc(NC(=O)C(F)(CC)c3cncc(NS(=O)(=O)C4CC4)n3)nc2)n1 (stereo not drawn) [Example P200]
++ (>30-60 fold (++))

Another molecule to check: CCOc1cncc(-c2ccc(NC(=O)C(F)(CC)c3cncc(NS(=O)(=O)C4CC4)n3)nc2)n1 (single isomer, unassigned) [Example P207]
+ (2-30 fold (+))

Note, next up: CCC(C(=O)Nc1ccc(-c2cncc(OC(C)C)n2)cn1)c1ccnc(NS(=O)(=O)C2CC2)n1 (stereo not drawn) [Example P89]
+++ (>60 fold (+++))

And what about the molecule CCOc1cncc(-c2ccc(NC(=O)C(C)(C)c3ccnc(NS(C)(=O)=O)n3)nc2)n1 [Example P76] ?
++ (>30-60 fold (++))
